# systemTested: human PHD2181-417 (Homo sapiens (Human), UniProt Q9GZT9)
# Sequence (Q9GZT9 181-417): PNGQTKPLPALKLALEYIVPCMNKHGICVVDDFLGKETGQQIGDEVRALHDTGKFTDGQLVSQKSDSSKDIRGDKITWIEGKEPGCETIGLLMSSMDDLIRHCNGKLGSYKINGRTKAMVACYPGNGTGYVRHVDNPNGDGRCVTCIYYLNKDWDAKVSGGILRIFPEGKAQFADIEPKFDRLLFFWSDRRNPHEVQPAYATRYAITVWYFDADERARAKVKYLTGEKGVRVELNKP
# methodSummary: PHD2 enzyme activity assay ([14C]-succinic acid production);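 note: reaction ran 10 min with compound in Tris pH 7.5 buffer with catalase, DTT and ascorbate, labelled succinate freed of leftover 2-oxoglutarate by DNP precipitation, then beta counted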
# Assay type: biochemical
# assayContext: PHD2181-417 polypeptide, HIF-1α peptide 10 μM, [5-14C]-2-oxoglutaric acid; 30 min pre-incubation; tested 10 μM to 3 nM
readoutKind: Enzyme pIC50
Form: value (number only, do not type unit).

Suppose we examine the compound O=C(O)c1cnn(-c2nc3c(Br)cc(C(F)(F)F)cc3[nH]2)c1 ; what Enzyme pIC50 value has been reported? 6.8

Another compound to check: CCCSc1cc2[nH]c(-n3cc(C(=O)O)cn3)nc2cc1Cl 7

What would you report for O=C(O)c1cnn(-c2nc3c(Br)c(Cl)c(Cl)cc3[nH]2)c1 ? 7.1

* * *

Let's look at some compounds and their measured Enzyme pIC50.
# systemTested: human PHD2181-417 (Homo sapiens (Human))
# methodSummary: PHD2 enzyme activity assay ([14C]-succinic acid production)
# Assay type: biochemical
# assayContext: PHD2181-417 polypeptide, HIF-1α peptide 10 μM, [5-14C]-2-oxoglutaric acid; 30 min pre-incubation; tested 10 μM to 3 nM
The reply should be a number, written without any unit.

Examples from the recorded data:
COc1cc2[nH]c(-n3cc(C(=O)O)cn3)nc2cc1Cl [Example 46]	6.5
CCSc1cc2nc(-n3cc(C(=O)O)cn3)[nH]c2cc1F [Example 151]	6.9

API: the following record is the query input.
What value of measured Enzyme pIC50 is listed for O=C(O)c1cnn(-c2nc3cc(NCCN4CCOCC4)c(Cl)cc3[nH]2)c1 [Example 134] ? 6.3

* * *

# systemTested: human PHD2181-417 (Homo sapiens (Human))
# methodSummary: PHD2 enzyme activity assay ([14C]-succinic acid production)
# Assay type: biochemical
# assayContext: PHD2181-417 polypeptide, HIF-1α peptide 10 μM, [5-14C]-2-oxoglutaric acid; 30 min pre-incubation; tested 10 μM to 3 nM
Here the recorded Enzyme pIC50 is given for each entry.
Please reply with the number alone, leaving off any unit.

Known results for compounds:
O=C(O)c1cnn(-c2nc3cc(Oc4ccc(Cl)cc4)c(OC(F)(F)F)cc3[nH]2)c1 [Example 52]	7.4
CCCS(=O)(=O)c1cc2[nH]c(-n3cc(C(=O)O)cn3)nc2cc1OC(F)(F)F [Example 106]	7.5
CS(=O)(=O)Nc1cc2nc(-n3cc(C(=O)O)cn3)[nH]c2cc1Cl [Example 136]	6.8
CCS(=O)(=O)Nc1cc2nc(-n3cc(C(=O)O)cn3)[nH]c2cc1Cl [Example 137]	6.6
CC(C)Sc1cc2[nH]c(-n3cc(C(=O)O)cn3)nc2cc1Cl [Example 77]	6.8
COc1cccc(Sc2cc3nc(-n4cc(C(=O)O)cn4)[nH]c3cc2Cl)c1 [Example 64]	6.9

Fill in the blank: the reported Enzyme pIC50 of CSc1cc2[nH]c(-n3cc(C(=O)O)cn3)nc2cc1OC(F)(F)F [Example 79] is ____. 7.1

How about this compound: O=C(O)c1cnn(-c2nc3cc(Sc4ccc(Cl)cc4)c(Cl)cc3[nH]2)c1 [Example 61] 7.07

Okay, and O=C(O)c1cnn(-c2nc3cc(S(=O)(=O)Cc4ccc(C(F)(F)F)cc4)c(Cl)cc3[nH]2)c1 [Example 179] ? 7.7

Moving on to the next compound: Cc1cc(Br)cc2nc(-n3cc(C(=O)O)cn3)[nH]c12 [Example 49] 6.1
